Reported Activity is given for each of the following molecules.
TESTED SYSTEM: Quinolone resistance protein NorA (Staphylococcus aureus) (UniProt P0A0J7)
PROTOCOL: Inhibition of NorA in Staphylococcus aureus 1199B infected human THP-1 cells assessed as potentiation of norfloxacin-induced bactericidal activity by measuring reduction in bacterial count at modulatory concentration measured after 24 hrs
Format: cell-based

MOLECULE | Activity / log10CFU/ml
C=CCOc1ccc(C2N=C(c3ccccc3)c3cc(Cl)ccc3N2C)cc1 (centres undefined) | 4.25
Fc1ccccc1C1=NC(c2ccco2)Nc2ccc(Cl)cc21 (centres undefined) | 4.68
CN1c2ccc(Cl)cc2C(c2ccccc2)=NC1c1ccc(Br)cc1 (centres undefined) | 4.47
Brc1ccc(C2=NC(c3ccc(Br)cc3)Nc3ccccc32)cc1 (centres undefined) | 4.13

====

Tested on: Staphylococcus aureus
PROTOCOL: Antibacterial activity against Staphylococcus aureus 1199 measured after 24 hrs by Muller Hinton broth based MTT assay
Assay type: functional
PROPERTY LABEL: MIC (µg/mL)

MOLECULE | UNIT | TEST RESULT
CN(C)[C@@H]1C(O)=C(C(N)=O)C(=O)[C@@]2(O)C(O)=C3C(=O)c4c(O)cccc4[C@@](C)(O)[C@H]3C[C@@H]12 [TETRACYCLINE] | µg/mL | 0.02
CC(=O)NC[C@H]1CN(c2ccc(N3CCOCC3)c(F)c2)C(=O)O1 [LINEZOLID] | µg/mL | 0.85
O=[N+]([O-])c1ccc2c(c1)C(c1ccccc1)=NC(c1ccccc1)N2 (centres undefined) | µg/mL | 125
CN1c2ccc(Cl)cc2C(c2ccccc2)=NC1c1ccccc1 (centres undefined) | µg/mL | 125

====

Test system: Staphylococcus aureus
PROTOCOL: Antibacterial activity against Staphylococcus aureus 1199 measured after 24 hrs by Muller Hinton broth based MTT assay
Type: functional

COMPOUND | MIC (µg/mL)
CCn1cc(C(=O)O)c(=O)c2cc(F)c(N3CCNCC3)cc21 | 1.56
CC1(C)S[C@@H]2[C@H](NC(=O)[C@H](N)c3ccc(O)cc3)C(=O)N2[C@H]1C(=O)O | 0.05
O=[N+]([O-])c1ccc(C2N=C(c3ccccc3)c3ccccc3N2)cc1 (centres undefined) | 125
COc1ccc(C2N=C(c3ccccc3)c3ccccc3N2)cc1 (centres undefined) | 125
CO[C@H]1/C=C/O[C@@]2(C)Oc3c(C)c(O)c4c(O)c(c(/C=N/N5CCN(C)CC5)c(O)c4c3C2=O)NC(=O)/C(C)=C\C=C\[C@H](C)[C@H](O)[C@@H](C)[C@@H](O)[C@@H](C)[C@H](OC(C)=O)[C@@H]1C | 0.1
c1ccc(C2=NC(c3ccccc3)Nc3ccccc32)cc1 (centres undefined) | 125
CN1c2ccc(Cl)cc2C(c2ccccc2)=NC1c1ccc(Br)cc1 (centres undefined) | 125
CN1c2ccc(Cl)cc2C(c2ccccc2)=NC1c1ccc([N+](=O)[O-])cc1 (centres undefined) | 125
CC1(C)S[C@@H]2[C@H](NC(=O)[C@H](N)c3ccccc3)C(=O)N2[C@H]1C(=O)O | 0.05
Fc1ccccc1C1=NC(c2ccco2)Nc2ccc(Cl)cc21 (centres undefined) | 125
Brc1ccc(C2N=C(c3ccccc3)c3ccccc3N2)cc1 (centres undefined) | 125
c1ccc(C2=NC(c3ccco3)Nc3ccccc32)cc1 (centres undefined) | 125
CC[C@H]1OC(=O)[C@H](C)[C@@H](O[C@H]2C[C@@](C)(OC)[C@@H](O)[C@H](C)O2)[C@H](C)[C@@H](O[C@@H]2O[C@H](C)C[C@H](N(C)C)[C@H]2O)[C@](C)(O)C[C@@H](C)C(=O)[C@H](C)[C@@H](O)[C@]1(C)O | 0.1
Brc1ccc(C2=NC(c3ccc(Br)cc3)Nc3ccccc32)cc1 (centres undefined) | 125
CN1c2ccc(Cl)cc2C(c2ccccc2)=NC1c1ccco1 (centres undefined) | 125
COc1ccc(C2N=C(c3ccccc3)c3ccccc3N2)cc1OC (centres undefined) | 125
Fc1ccccc1C1=NC(c2ccc(Br)cc2)Nc2ccc(Cl)cc21 (centres undefined) | 125
C=CCOc1ccc(C2N=C(c3ccccc3)c3cc(Cl)ccc3N2C)cc1 (centres undefined) | 125
O=C(O)c1cn(C2CC2)c2cc(N3CCNCC3)c(F)cc2c1=O | 0.05

====

Reported fold change (FC) is given for each of the following compounds.
TESTED SYSTEM: Quinolone resistance protein NorA (Staphylococcus aureus)
PROTOCOL: Inhibition of NorA in Staphylococcus aureus 1199B assessed as potentiation of ethidium bromide-induced antibacterial activity by measuring ethidium bromide MIC at sub MIC relative to ethidium bromide MIC alone

COMPOUND | TESTED SYSTEM | fold change (FC)
N#CC(C#N)=NNc1cccc(Cl)c1 [CARBONYL CYANIDE M-CHLOROPHENYLHYDRAZONE] | Quinolone resistance protein NorA (Staphylococcus aureus) | 16
Brc1ccc(C2=NC(c3ccc(Br)cc3)Nc3ccccc32)cc1 (stereo not given) | Quinolone resistance protein NorA (Staphylococcus aureus) | 4
CN1c2ccc(Cl)cc2C(c2ccccc2)=NC1c1ccccc1 (stereo not given) | Quinolone resistance protein NorA (Staphylococcus aureus) | 4
COc1ccc(C2N=C(c3ccccc3)c3ccccc3N2)cc1OC (stereo not given) | Quinolone resistance protein NorA (Staphylococcus aureus) | 8
CN1c2ccc(Cl)cc2C(c2ccccc2)=NC1c1ccc(Br)cc1 (stereo not given) | Quinolone resistance protein NorA (Staphylococcus aureus) | 16
Fc1ccccc1C1=NC(c2ccco2)Nc2ccc(Cl)cc21 (stereo not given) | Quinolone resistance protein NorA (Staphylococcus aureus) | 16
C=CCOc1ccc(C2N=C(c3ccccc3)c3cc(Cl)ccc3N2C)cc1 (stereo not given) | Quinolone resistance protein NorA (Staphylococcus aureus) | 4
c1ccc(C2=NC(c3ccccc3)Nc3ccccc32)cc1 (stereo not given) | Quinolone resistance protein NorA (Staphylococcus aureus) | 16
CN1c2ccc(Cl)cc2C(c2ccccc2)=NC1c1ccc([N+](=O)[O-])cc1 (stereo not given) | Quinolone resistance protein NorA (Staphylococcus aureus) | 8
COc1ccc(CCN(C)CCCC(C#N)(c2ccc(OC)c(OC)c2)C(C)C)cc1OC (stereo not given) | Quinolone resistance protein NorA (Staphylococcus aureus) | 8

====

PROTOCOL: Cytotoxicity against kidney epithelial cells (unknown origin) assessed as cell viability at 50 ug/mL measured after 24 hrs by alamar blue assay relative to control
Type: toxicity, cell-based, Fetal kidney cell
SETUP CONDITIONS: at 50 µg/mL, read-out: Activity
Quick rule for you: viability at 24 h, 50 ug/mL under 80% gets condition met, anything else gets condition not met.

COMPOUND | CLASS ASSIGNMENT
COc1ccc(C2N=C(c3ccccc3)c3ccccc3N2)cc1OC (stereo not drawn) | condition not met
CN1c2ccc(Cl)cc2C(c2ccccc2)=NC1c1ccc([N+](=O)[O-])cc1 (stereo not drawn) | condition not met
c1ccc(C2=NC(c3ccccc3)Nc3ccccc32)cc1 (stereo not drawn) | condition met
Brc1ccc(C2=NC(c3ccc(Br)cc3)Nc3ccccc32)cc1 (stereo not drawn) | condition not met
CN1c2ccc(Cl)cc2C(c2ccccc2)=NC1c1ccccc1 (stereo not drawn) | condition met
Fc1ccccc1C1=NC(c2ccco2)Nc2ccc(Cl)cc21 (stereo not drawn) | condition not met
C=CCOc1ccc(C2N=C(c3ccccc3)c3cc(Cl)ccc3N2C)cc1 (stereo not drawn) | condition not met
CN1c2ccc(Cl)cc2C(c2ccccc2)=NC1c1ccc(Br)cc1 (stereo not drawn) | condition not met

====

TESTED SYSTEM: Quinolone resistance protein NorA (Staphylococcus aureus) (UniProt P0A0J7)
Sequence (whole entry): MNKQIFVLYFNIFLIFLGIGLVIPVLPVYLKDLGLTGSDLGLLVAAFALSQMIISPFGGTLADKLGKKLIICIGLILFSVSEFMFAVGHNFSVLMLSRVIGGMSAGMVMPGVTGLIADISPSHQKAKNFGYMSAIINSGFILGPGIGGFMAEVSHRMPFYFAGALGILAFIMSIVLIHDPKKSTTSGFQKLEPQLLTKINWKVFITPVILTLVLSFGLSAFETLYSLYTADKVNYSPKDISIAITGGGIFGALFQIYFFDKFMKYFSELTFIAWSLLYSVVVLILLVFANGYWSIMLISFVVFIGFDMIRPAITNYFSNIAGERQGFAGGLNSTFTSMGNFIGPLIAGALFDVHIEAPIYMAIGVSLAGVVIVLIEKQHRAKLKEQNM
PROTOCOL: Inhibition of NorA in Staphylococcus aureus 1199B assessed as accumulation of norfloxacin at 3.9 ug/ml by measuring fluorescence intensity measured at 5 mins interval for 40 mins by fluorescence spectrophotometry
SETUP CONDITIONS: dose 3.9 µg/ml

MOLECULE | Flu intensity
CN1c2ccc(Cl)cc2C(c2ccccc2)=NC1c1ccccc1 (configuration not stated) | 1560
c1ccc(C2=NC(c3ccccc3)Nc3ccccc32)cc1 (configuration not stated) | 3960
C=CCOc1ccc(C2N=C(c3ccccc3)c3cc(Cl)ccc3N2C)cc1 (configuration not stated) | 15400
CN1c2ccc(Cl)cc2C(c2ccccc2)=NC1c1ccc(Br)cc1 (configuration not stated) | 23600
Brc1ccc(C2=NC(c3ccc(Br)cc3)Nc3ccccc32)cc1 (configuration not stated) | 13000
CN1c2ccc(Cl)cc2C(c2ccccc2)=NC1c1ccc([N+](=O)[O-])cc1 (configuration not stated) | 573
Fc1ccccc1C1=NC(c2ccco2)Nc2ccc(Cl)cc21 (configuration not stated) | 28700
